Reference source: paper PMC5266543

# SUBJECT OF TEST: Mtb Dxr (Mycobacterium tuberculosis, UniProt P9WNS1)
# Sequence (P9WNS1 whole entry): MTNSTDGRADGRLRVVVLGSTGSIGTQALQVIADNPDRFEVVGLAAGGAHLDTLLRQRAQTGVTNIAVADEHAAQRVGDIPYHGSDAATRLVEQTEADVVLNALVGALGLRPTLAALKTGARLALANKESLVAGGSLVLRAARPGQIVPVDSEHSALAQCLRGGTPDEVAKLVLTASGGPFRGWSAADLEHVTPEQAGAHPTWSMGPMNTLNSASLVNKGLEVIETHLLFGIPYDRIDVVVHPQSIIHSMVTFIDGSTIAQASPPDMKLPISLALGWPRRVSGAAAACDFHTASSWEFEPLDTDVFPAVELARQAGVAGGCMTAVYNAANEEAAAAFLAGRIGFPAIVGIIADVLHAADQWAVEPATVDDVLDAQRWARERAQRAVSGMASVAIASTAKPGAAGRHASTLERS
# Format: biochemical

COMPOUND | inhibition of Mtb Dxr (in words)
O=C(CCCc1ccccc1)N(O)CCCP(=O)([O-])O.[Na+] [Compound 8h] | greatest inhibition
CC(=O)N(CCCP(=O)([O-])O)OCc1cccc2ccccc12.[Na+] [Compound 16i] | greatest inhibition
CC(=O)N(CCCP(=O)([O-])O)OC(C)c1ccccc1.[Na+] (centres unmarked) [Compound 16e] | greatest inhibition
CCCCC(=O)N(O)CCCP(=O)([O-])O.[Na+] [Compound 8a] | greatest inhibition

----------
# SUBJECT OF TEST: Mtb Dxr (Mycobacterium tuberculosis, UniProt P9WNS1)
# Type: biochemical
# CONDITION SUMMARY: read-out: Ki with respect to DXP

MOLECULE | MEASUREMENT UNITS | Ki
CC(=O)N(CCCP(=O)([O-])O)OCc1ccc2ccccc2c1.[Na+] [Compound 16j] | µM | 1
